system.name: Lanosterol 14-alpha demethylase (Candida albicans (strain SC5314 / ATCC MYA-2876) (Yeast))
Sequence (P10613 whole entry): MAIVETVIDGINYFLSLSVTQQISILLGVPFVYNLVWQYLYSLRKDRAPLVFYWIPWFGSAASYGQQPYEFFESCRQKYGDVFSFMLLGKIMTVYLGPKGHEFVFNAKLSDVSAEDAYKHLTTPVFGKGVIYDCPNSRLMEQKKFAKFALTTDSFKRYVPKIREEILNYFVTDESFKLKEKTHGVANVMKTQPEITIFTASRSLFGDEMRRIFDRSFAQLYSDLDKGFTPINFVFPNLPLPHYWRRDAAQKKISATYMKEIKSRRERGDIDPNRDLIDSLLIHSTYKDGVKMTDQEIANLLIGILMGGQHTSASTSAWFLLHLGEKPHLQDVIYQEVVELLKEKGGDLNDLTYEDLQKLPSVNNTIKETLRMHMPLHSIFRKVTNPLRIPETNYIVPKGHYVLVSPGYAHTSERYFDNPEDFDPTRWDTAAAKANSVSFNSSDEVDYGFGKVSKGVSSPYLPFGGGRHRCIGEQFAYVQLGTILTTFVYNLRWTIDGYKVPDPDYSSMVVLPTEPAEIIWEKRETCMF
assay.procedure: Inhibition of CYP51 in Candida albicans ATCC SC5314 assessed as lanosterol content at 4 ug/ml measured after 48 hrs by GC-MS analysis
Parameters: scale not given: the % may be the effect or the level left
experimental.setup: at 4 µg/mL
Recorded measurements of Activity, one per entry
test.readout: Activity (%)

{"columns": ["compound", "test.readout", "numeric.readout"],
 "data": [
  ["OC(Cn1cncn1)(Cn1cncn1)c1ccc(F)cc1F [FLUCONAZOLE]", "Activity", 35.17],
  ["C[C@H](C(=O)OC(Cn1ccnc1)c1ccc(F)cc1)c1ccc(-c2ccccc2)c(F)c1 (some centres undefined)", "Activity", 33.52],
  ["C[C@H](C(=O)N(C)CC(O)(Cn1ccnc1)c1ccc(Cl)cc1)c1ccc(-c2ccccc2)c(F)c1 (some centres undefined)", "Activity", 39.74],
  ["C[C@H](C(=O)N(C)CC(O)(Cn1ccnc1)c1ccc(Cl)cc1Cl)c1cccc(C(=O)c2ccccc2)c1 (some centres undefined)", "Activity", 38.57]
]}

###

Test system: Pichia kudriavzevii
assay.procedure: Antifungal activity against Candida krusei ATCC 6258 assessed as inhibition of fungal growth measured after 72 hrs by CLSI based liquid medium dilution method
Type: functional

{"columns": ["compound", "MIC50 (µg/mL)"],
 "data": [
  ["CC(=O)N1CCN(c2ccc(OCC3COC(Cn4ccnc4)(c4ccc(Cl)cc4Cl)O3)cc2)CC1 (stereo not drawn) [KETOCONAZOLE]", 0.5],
  ["COc1ccc2cc([C@H](C)C(=O)N(C)CC(O)(Cn3ccnc3)c3ccc(F)cc3)ccc2c1 (stereo partly drawn)", 1],
  ["COc1ccc2cc([C@H](C)C(=O)N(C)CC(O)(Cn3ccnc3)c3ccc(Cl)cc3Cl)ccc2c1 (stereo partly drawn)", 2],
  ["C[C@H](C(=O)N[C@H](Cn1cncn1)c1ccccc1)c1ccc(-c2ccccc2)c(F)c1", 0.5],
  ["COc1ccc2cc([C@H](C)C(=O)OC(Cn3cnnn3)c3ccc(Cl)cc3)ccc2c1 (stereo partly drawn)", 0.25],
  ["C[C@H](C(=O)OC(Cn1cnnn1)c1ccc(Cl)cc1)c1ccc(CC2CCCC2=O)cc1 (stereo partly drawn)", 2],
  ["OC(Cn1cncn1)(Cn1cncn1)c1ccc(F)cc1F [FLUCONAZOLE]", 1],
  ["C[C@H](C(=O)N[C@H](Cn1cncn1)c1ccccc1)c1cccc(C(=O)c2ccccc2)c1", 0.5],
  ["C[C@H](C(=O)OC(Cn1ccnc1)c1ccc(F)cc1)c1ccc(-c2ccccc2)c(F)c1 (stereo partly drawn)", 0.125],
  ["C[C@H](C(=O)N[C@H](Cn1cncn1)c1ccccc1)c1ccc(CC2CCCC2=O)cc1 (stereo partly drawn)", 0.5],
  ["C[C@H](C(=O)OC(Cn1cnnn1)c1ccc(F)cc1)c1cccc(C(=O)c2ccccc2)c1 (stereo partly drawn)", 0.5],
  ["COc1ccc2cc([C@H](C)C(=O)OC(Cn3ccnc3)c3ccc(F)cc3)ccc2c1 (stereo partly drawn)", 2],
  ["C[C@H](C(=O)OC(Cn1cnnn1)c1ccc(F)cc1)c1ccc(-c2ccccc2)c(F)c1 (stereo partly drawn)", 0.5]
]}

Source of measurements: ChEMBL document CHEMBL5214990
